Each recorded value in this set is attributed to PubChem BioAssay.

- assayMethodText: thallium flux activation in parental CHO cells, counter-screen for KCNQ1 potentiator project (AID 493006);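 as to activation: fluorescence ratio of max minus min over baseline after K+ and Tl+ depolarization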
- appliedConditions: parental CHO-K1 cells, FluxOR thallium flux, at 10 µM
The source made the active and inactive calls.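 The calls were made as follows: active = duplicate-averaged activation above buffer control mean plus 5 SD of those controls; inactive = the rest.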
Entry note: the call must match one of label 1 = active, label 0 = inactive

Here's what some known entries look like.
molecule	labelValue
S=c1nc[nH]c2c1sc1nc(N3CCOCC3)c3c(c12)CCCC3	label 0
O=c1c2cc(Br)ccc2nc(-c2cccc(C(F)(F)F)c2)n1O	label 1
CCC(O)(CC)C(=O)NN(C(=O)CCl)c1ccccc1	label 0

Given COc1ccc(/C=N/N=C2/NC(=O)C(c3ccccc3)S2)c(OC)c1 (centres undefined) , state the outcome it received in this test.
label 0

Record: "O=C(O)c1cnn(-c2ccccc2)c1-c1ccncc1"
label 1

Record: "COC(=O)c1ccc(CSc2ncnc3c2sc2nc(N4CCOCC4)c4c(c23)CCCC4)o1"
label 0

Record: "Cc1ccc2oc(C(=O)N3CCN(c4cccc(C)n4)CC3)c(C)c2c1"
label 0

Record: "CC(=O)Nc1ccc(/C=N/NC(=O)c2cccc(S(=O)(=O)N3CCOCC3)c2)cc1"
label 0

Record: "COc1ccc(C(=O)O/N=C(\N)Cc2ccc(Cl)cc2Cl)cc1OC"
label 0

Record: "Cc1ccc(OCC(=O)NCCCNC(=O)c2ccncc2)cc1C"
label 0

Record: "Oc1c(Br)cc(Br)cc1C=Nc1cccc2ncccc12"
label 1

Record: "COc1cc(CNCCN2CCOCC2)ccc1OCc1ccc(Cl)cc1Cl"
label 0

Record: "O=C(Nc1nnc(-c2ccc(F)cc2)o1)c1cc(Cl)sc1Cl"
label 1

Record: "O=C(CC(c1ccccc1)c1ccccc1)Nc1ncn[nH]1"
label 0

----------
- studySystem: Potassium voltage-gated channel subfamily KQT member 1 (Homo sapiens) (UniProt P51787)
- Sequence (P51787 whole entry, looked up): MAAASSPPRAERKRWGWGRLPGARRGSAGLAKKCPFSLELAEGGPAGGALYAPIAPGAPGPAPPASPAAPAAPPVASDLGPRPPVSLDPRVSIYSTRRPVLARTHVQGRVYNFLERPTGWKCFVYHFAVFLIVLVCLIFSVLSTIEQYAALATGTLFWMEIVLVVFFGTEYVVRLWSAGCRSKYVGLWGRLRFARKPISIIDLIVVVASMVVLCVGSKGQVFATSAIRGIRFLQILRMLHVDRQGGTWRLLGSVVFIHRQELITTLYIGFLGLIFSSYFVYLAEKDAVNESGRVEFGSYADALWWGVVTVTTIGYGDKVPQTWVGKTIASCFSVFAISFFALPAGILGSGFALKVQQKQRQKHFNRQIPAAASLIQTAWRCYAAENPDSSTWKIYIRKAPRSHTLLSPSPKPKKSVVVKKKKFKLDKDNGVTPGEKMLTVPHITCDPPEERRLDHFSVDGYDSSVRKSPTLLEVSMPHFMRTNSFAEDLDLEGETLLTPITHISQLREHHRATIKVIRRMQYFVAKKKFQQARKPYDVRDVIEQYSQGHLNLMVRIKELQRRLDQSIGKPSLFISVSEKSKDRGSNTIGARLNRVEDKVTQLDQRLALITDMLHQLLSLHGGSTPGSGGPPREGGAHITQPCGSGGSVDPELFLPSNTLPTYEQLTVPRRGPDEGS
- assayMethodText: KCNQ1 potassium channel potentiators, confirmation, FluxOR thallium flux, CHO cells, duplicates (AID 493007)
- appliedConditions: KCNQ1 cell line, FluxOR thallium flux fluorescence, at 10 µM, % of reference activator effect, buffer zero
The source made the active and inactive calls.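 How the source made its calls: active means potentiation averaged over duplicate wells exceeding buffer-only control mean by more than 3 SD; inactive means the rest.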
Entry note: the call must match one of active, inactive

Here's what some known entries look like.
compound	labelValue
Cc1ccc(C(C#N)c2ccc3c(C(F)(F)F)cc(C(F)(F)F)nc3n2)cc1 (stereo not drawn)	active
O=C(NCc1ccccc1)c1onc(CSc2ccc(F)cc2)c1C(=O)NCCCN1CCOCC1	inactive

Given "S=c1nc(SCc2ccccc2)[nH]c2ccccc12" , state the outcome it received in this test.
active

Record: "O=C(O)c1c2c(nc3ccccc13)/C(=C/c1cccc([N+](=O)[O-])c1)CCC2"
active

Record: "CS(=O)(=O)N1CCC(C(=O)Nc2ccc(OCc3ccccc3)cc2)CC1"
inactive

Record: "CCn1c(SCC(=O)NC(=O)NCc2ccco2)nc2sc(C)c(C)c2c1=O"
active

Record: "CSc1ccccc1NC(=O)c1ccc2c(c1)CCN2S(C)(=O)=O"
inactive

Record: "Nc1nc(CCl)nc(Nc2ccc3ccccc3c2)n1"
inactive

Record: "C/C(=N\NC(=O)c1cc2ccccc2cc1O)c1cc2ccccc2o1"
active

Record: "S=c1[nH]cnc2scc(-c3ccc(Cl)cc3)c12"
active

Record: "CN(C)c1nc(=Nc2cccc(Cl)c2)ss1"
active

Record: "Nc1nc(N)c(N=Nc2ccc(C(=O)O)cc2)c(N)n1"
inactive

Record: "COc1cc(OC)c(-n2cc(-c3ccc(Cl)cc3)[nH]c2=O)cc1Cl"
inactive

Record: OC(c1cc(C(F)(F)F)nc2c(Cl)cc(Cl)cc12)C1CCCCN1 (stereo not drawn)
inactive

Record: O=C(NCC1CCCO1)c1ccccc1OCc1ccc(F)cc1 (stereo not drawn)
inactive

Record: "CC(C)(C)c1ccc(C(=O)NC(=S)NNC(=O)COc2ccccc2)cc1"
active

Record: "CNCc1ccccc1Sc1cccc2ccccc12"
inactive

Record: "C#CC1(NC(=O)NCCCC)CCCCC1"
inactive

----------
- assayMethodText: thallium flux activation in parental CHO cells, counter-screen for KCNQ1 potentiator project (AID 493006);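 as to activation: fluorescence ratio of max minus min over baseline after K+ and Tl+ depolarization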
- appliedConditions: parental CHO-K1 cells, FluxOR thallium flux, at 10 µM
Activity calls are given as the source filed them.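 How the source made its calls: active means duplicate-averaged activation above buffer control mean plus 5 SD of those controls; inactive means the rest.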
Entry note: the call must match one of 1 for active, 0 for inactive

Given "CCc1cccc(C)c1NC(=O)c1ccc2nc(N3CCOCC3)sc2c1" , state the outcome it received in this test.
0

----------
- studySystem: Short transient receptor potential channel 4 (Mus musculus)
- assayMethodText: inhibitors of mouse TRPC4 channel, confirmation, cell-based, Fluo4, HEK293 TRPC4beta/mu-opioid (AID 2636)
- appliedConditions: DAMGO, Fluo4 calcium flux, at 10 µM
Calls of active or inactive are those of the source.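 The calls were made as follows: active = calcium signal cut by more than 3 SD below the full-agonist control yet still positive, in both repeats and the earlier primary screen; inactive = the rest.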
Entry note: the call must match one of y for active, n for inactive

Here's what some known entries look like.
compound	labelValue
CCn1c(SCC(=O)c2cc(C)n(CC3CCCO3)c2C)nc2ccccc21 (centres undefined)	y
CC[C@@H](C(=O)[C@@H](C)[C@@H](O)[C@H](C)CCc1ccc(C)c(O)c1C(=O)O)[C@H]1O[C@](CC)([C@H]2CC[C@](O)(CC)[C@H](C)O2)C[C@@H]1C	n

Given "O=C(NCCc1cccc(Cl)c1)c1ccc(OC2CCN(Cc3ccccn3)CC2)cc1" , state the outcome it received in this test.
n

Record: "CCCCN(C)CCCNC(=O)CN1N=C(c2ccc(Cl)cc2)CCC1=O"
n

Record: "O=C(c1c(F)cccc1F)N1CCN(c2ncc(Br)cn2)CC1"
n

----------
- studySystem: Potassium voltage-gated channel subfamily KQT member 2 (Rattus norvegicus) (UniProt O88943)
- Sequence (O88943 whole entry, looked up): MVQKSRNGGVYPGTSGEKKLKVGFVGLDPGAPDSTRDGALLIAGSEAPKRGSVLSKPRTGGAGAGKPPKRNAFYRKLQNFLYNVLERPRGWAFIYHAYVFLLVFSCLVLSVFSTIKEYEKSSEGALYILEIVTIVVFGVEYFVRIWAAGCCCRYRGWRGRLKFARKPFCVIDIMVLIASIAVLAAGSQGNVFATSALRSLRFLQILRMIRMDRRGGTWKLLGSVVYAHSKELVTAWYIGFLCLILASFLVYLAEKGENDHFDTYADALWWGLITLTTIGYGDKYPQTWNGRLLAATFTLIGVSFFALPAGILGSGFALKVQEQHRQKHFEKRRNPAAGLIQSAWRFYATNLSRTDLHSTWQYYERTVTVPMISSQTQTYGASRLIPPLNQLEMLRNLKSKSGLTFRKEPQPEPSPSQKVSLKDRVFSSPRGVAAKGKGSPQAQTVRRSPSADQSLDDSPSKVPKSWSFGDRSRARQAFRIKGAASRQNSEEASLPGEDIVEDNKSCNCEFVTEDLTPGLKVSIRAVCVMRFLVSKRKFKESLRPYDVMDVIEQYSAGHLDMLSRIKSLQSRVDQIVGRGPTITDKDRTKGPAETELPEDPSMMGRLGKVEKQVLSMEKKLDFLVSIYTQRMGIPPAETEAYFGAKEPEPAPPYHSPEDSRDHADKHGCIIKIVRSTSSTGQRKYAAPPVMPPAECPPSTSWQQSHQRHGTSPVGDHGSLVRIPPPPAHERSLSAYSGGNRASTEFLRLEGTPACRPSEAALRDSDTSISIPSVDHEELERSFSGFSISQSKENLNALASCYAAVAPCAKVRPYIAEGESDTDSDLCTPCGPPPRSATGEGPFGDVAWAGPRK
- assayMethodText: rat KCNQ2 channel potentiation, selectivity assay for KCNQ1 potentiator project, KCNQ2-CHO-K1 cells (AID 493009);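 also: assay conditions were tuned for KCNQ1 rather than KCNQ2 modulators; signal is max minus min fluorescence divided by baseline after thallium stimulus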
- appliedConditions: FluxOR thallium flux fluorescence, at 10 µM, scaled: buffer 0, activator control 100
The source made the active and inactive calls.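 How the source made its calls: active means mean duplicate potentiation above the buffer control mean plus 5 SD of buffer wells; inactive means the rest.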
Entry note: the call must match one of active, inactive

Here's what some known entries look like.
compound	labelValue
CCCN(CCC)C(=S)NC(=O)c1ccc(Cl)cc1Cl	active
COC(=O)c1ccccc1NC(=O)Cn1c(=O)n(Cc2ccccc2)c(=O)c2c(C)c(C)sc21	inactive
CC(Oc1ccc(Br)cc1)c1nc2c3ccccc3nc(=S)n2[nH]1 (stereo not given)	active
O=C(c1ccccc1)N1CCC(CC2CC(c3ccc(Cl)cc3)=NO2)(C(=O)NCC2CCCCC2)CC1 (stereo not given)	inactive

Continue with the compound presented below.
Given "Cc1ccc(-c2ccnc(=S)[nH]2)cc1" , state the outcome it received in this test.
inactive

----------
- studySystem: Potassium voltage-gated channel subfamily KQT member 2 (Rattus norvegicus)
- assayMethodText: rat KCNQ2 channel potentiation, selectivity assay for KCNQ1 potentiator project, KCNQ2-CHO-K1 cells (AID 493009);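 also: assay conditions were tuned for KCNQ1 rather than KCNQ2 modulators; signal is max minus min fluorescence divided by baseline after thallium stimulus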
- appliedConditions: FluxOR thallium flux fluorescence, at 10 µM, scaled: buffer 0, activator control 100
Active and inactive are the calls of the source.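 Rule for the calls: active = mean duplicate potentiation above the buffer control mean plus 5 SD of buffer wells; inactive = the rest.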
Entry note: the call must match one of active, inactive

Here's what some known entries look like.
structureSmilesString	labelValue
CN(C)c1ccc(NC(=O)COC(=O)c2cc(Cl)ccc2[N+](=O)[O-])cc1	inactive
Clc1ccc(-c2csc(N3CCc4ccccc4C3)n2)cc1	inactive
Cc1ccccc1-c1nc(Cc2ccc(Cl)cc2)no1	inactive
Cc1cccc(NC(=O)c2cccnc2)c1	inactive
Cc1cccc(CS(=O)(=O)c2ncc(CO)n2C)c1	inactive

Continue with the compound presented below.
Given "COC(=O)c1cn(NC(=O)Cc2ccc(Cl)c(Cl)c2)c(=O)c2ccccc12" , state the outcome it received in this test.
active

----------
- studySystem: Potassium voltage-gated channel subfamily KQT member 1 (Homo sapiens) (UniProt P51787)
- assayMethodText: KCNQ1 channel current potentiators, confirmation, orthogonal assay for KCNQ1 potentiator project, IonWorks patch clamp, KCNQ1-CHO cells (AID 493184)
- appliedConditions: automated patch clamp current, at 10 µM; stronger effect = higher value
Active and inactive are the calls of the source.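 Rule for the calls: active = current rise at least 3 SD above the untreated control mean in each of two repeat wells; inactive = the rest.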
quantityName: current potentiation

Use these answered entries as a reference point.
molecule	measuredResult
O=C(NCc1ccc(F)cc1)C1CCC(CNS(=O)(=O)c2ccccc2)CC1 (stereo unspecified)	inactive
CCCSc1nnc(-c2cnn(-c3ccccc3)c2-n2cccc2)n1C	inactive
O=C(NCC1CCCO1)c1ccccc1OCc1ccc(F)cc1 (stereo unspecified)	inactive
O=c1[nH]c(C(Cl)(Cl)Cl)nc2ccc3ccccc3c12	inactive
O=S(=O)(/C=C/c1ccccc1)n1cnc2ccccc21	inactive
O=C(COC(=O)c1cc(NS(=O)(=O)c2cccs2)ccc1O)Nc1cc(Cl)ccc1Cl	inactive
S=c1nc2ccccc2c2nc(-c3ccccc3)[nH]n12	inactive
O=C(N/N=C1/C(=O)c2cccc3cccc1c23)c1ccc(Cl)cc1	inactive

What value of current potentiation has been reported for the following molecule? "Cc1ccc(/C=C/C(=O)C2C(=O)c3ccccc3C2=O)cc1"
inactive

Record: CC(C)Cc1ccc(C(C)C(=O)Nc2ccc(O)cc2)cc1 (stereo unspecified)
inactive

Record: "CCn1c(=S)[nH]c2c(c1=O)C(C)(C)Cc1ccccc1-2"
inactive
